Data credit: paper PMC12416549

Target: T1, TNFR1 (Homo sapiens, UniProt P19438)
T1 chain: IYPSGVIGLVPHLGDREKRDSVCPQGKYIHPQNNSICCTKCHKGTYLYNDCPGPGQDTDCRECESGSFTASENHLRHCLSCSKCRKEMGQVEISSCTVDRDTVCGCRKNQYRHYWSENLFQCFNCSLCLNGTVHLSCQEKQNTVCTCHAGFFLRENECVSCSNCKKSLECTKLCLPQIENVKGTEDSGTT
Assay: yeast display SC50
VALUE_KIND: apparent Kd (screen) (nM)

Recorded apparent Kd (screen), per entry:
# BINDER, VALUE_KIND, SCALE_UNIT, ENDPOINT_RESULT
data = [
    ("K64D (designed binder) SMEEEVEKAAKEYEKKKKEAIEKHLEKLKAKDKEAAERFLKELEEAAKEYAKDEAKTMSEEEADRRAKKYKEKVLLSELSEEEQKEIKEAEEKLVRTILKYVEEAAK", "apparent Kd (screen)", "nM", 1.05),
    ("E72S (designed binder) SMEEEVEKAAKEYEKKKKEAIEKHLEKLKAKDKEAAERFLKELEEAAKEYAKDEAKTMSEEEAKRRAKKYKSKVLLSELSEEEQKEIKEAEEKLVRTILKYVEEAAK", "apparent Kd (screen)", "nM", 2.73),
    ("E45A (designed binder) SMEEEVEKAAKEYEKKKKEAIEKHLEKLKAKDKEAAERFLKELEAAAKEYAKDEAKTMSEEEAKRRAKKYKEKVLLSELSEEEQKEIKEAEEKLVRTILKYVEEAAK", "apparent Kd (screen)", "nM", 2.05),
    ("E92R (designed binder) SMEEEVEKAAKEYEKKKKEAIEKHLEKLKAKDKEAAERFLKELEEAAKEYAKDEAKTMSEEEAKRRAKKYKEKVLLSELSEEEQKEIKEAERKLVRTILKYVEEAAK", "apparent Kd (screen)", "nM", 11.4),
    ("K100P (designed binder) SMEEEVEKAAKEYEKKKKEAIEKHLEKLKAKDKEAAERFLKELEEAAKEYAKDEAKTMSEEEAKRRAKKYKEKVLLSELSEEEQKEIKEAEEKLVRTILPYVEEAAK", "apparent Kd (screen)", "nM", 3),
]

a = L94C (designed binder) SMEEEVEKAAKEYEKKKKEAIEKHLEKLKAKDKEAAERFLKELEEAAKEYAKDEAKTMSEEEAKRRAKKYKEKVLLSELSEEEQKEIKEAEEKCVRTILKYVEEAAK
b = E4I (designed binder) SMEIEVEKAAKEYEKKKKEAIEKHLEKLKAKDKEAAERFLKELEEAAKEYAKDEAKTMSEEEAKRRAKKYKEKVLLSELSEEEQKEIKEAEEKLVRTILKYVEEAAK
c = K17Y (designed binder) SMEEEVEKAAKEYEKKYKEAIEKHLEKLKAKDKEAAERFLKELEEAAKEYAKDEAKTMSEEEAKRRAKKYKEKVLLSELSEEEQKEIKEAEEKLVRTILKYVEEAAK
// sort entries: apparent Kd (screen), high to low A complete answer lists every label in the requested sequence.
a, b, c
